# tested system: KRas G12S (Homo sapiens, UniProt P01116, G12S)
# Sequence (P01116 1-169 isoform P01116-2 G12S): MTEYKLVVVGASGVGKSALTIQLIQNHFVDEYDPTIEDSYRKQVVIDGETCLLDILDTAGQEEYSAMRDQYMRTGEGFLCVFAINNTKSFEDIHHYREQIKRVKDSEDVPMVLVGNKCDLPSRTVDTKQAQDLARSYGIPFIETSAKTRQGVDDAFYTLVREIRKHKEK
# Assay type: binding
# details: single point, 10 nM compound, read-out: Binding to KRas (% inhibition at 10 nM) G12S
Reported inhibition at 0.01 µM values for the following molecules.

- smiles: "CCc1c(F)ccc2cc(O)cc(N3CCc4c(nc(OC[C@@]56CCCN5C[C@H](F)C6)nc4N4CCCn5nc(C(=O)N6C7CCCC6CC7)cc5C4)C3)c12"
  inhibition at 0.01 µM [%]: 96
- smiles: "CCc1c(F)ccc2cc(O)cc(N3CCc4c(nc(OC[C@@]56CCCN5C[C@H](F)C6)nc4N4CCCn5nc(C(=O)N6CCN(C)CC6)cc5C4)C3)c12"
  inhibition at 0.01 µM [%]: 99
- smiles: "CCc1c(F)ccc2cc(O)cc(N3CCc4c(nc(OC[C@@]56CCCN5C[C@H](F)C6)nc4N4CCCCn5nc(C(=O)N(C)C)cc5C4)C3)c12"
  inhibition at 0.01 µM [%]: 99
- smiles: "CCc1c(F)ccc2cc(O)cc(N3CCc4c(nc(OC[C@@]56CCCN5C[C@H](F)C6)nc4N4CCCn5nc6c(c5C4)CCNC6=O)C3)c12"
  inhibition at 0.01 µM [%]: 100
- smiles: "CCc1c(F)ccc2cc(O)cc(N3CCc4c(nc(OC[C@@]56CCCN5C[C@H](F)C6)nc4N4CCCn5nc(C(=O)NC)c(Cl)c5C4)C3)c12"
  inhibition at 0.01 µM [%]: 99
- smiles: "CCc1c(F)ccc2cc(O)cc(N3CCc4c(nc(OC[C@@]56CCCN5C[C@H](F)C6)nc4N4CCCn5nc(C(=O)NC6CC6)cc5C4)C3)c12"
  inhibition at 0.01 µM [%]: 98
- smiles: "CCc1c(F)ccc2cc(O)cc(N3CCc4c(nc(OC[C@@]56CCCN5C[C@H](F)C6)nc4N4CCCc5nc(C(=O)N(C)C)sc5C4)C3)c12"
  inhibition at 0.01 µM [%]: 77
- smiles: "CCc1c(F)ccc2cc(O)cc(N3CCc4c(nc(OC[C@@]56CCCN5C[C@H](F)C6)nc4N4CCCn5nnc(Cl)c5C4)C3)c12"
  inhibition at 0.01 µM [%]: 94
- smiles: "CCc1c(F)ccc2cc(O)cc(N3CCc4c(nc(OC[C@@]56CCCN5C[C@H](F)C6)nc4N4CCCn5nc6c(c5C4)CCCN6)C3)c12"
  inhibition at 0.01 µM [%]: 71
- smiles: "CCc1c(F)ccc2cc(O)cc(N3CCc4c(nc(OC[C@@]56CCCN5C[C@H](F)C6)nc4N4CCCn5nc(C(=O)N(C)CCOCCOC)cc5C4)C3)c12"
  inhibition at 0.01 µM [%]: 99

Reference source for all entries: patent US20250368649A1
